Target: Solute carrier organic anion transporter family member 1B3 (Homo sapiens)
Sequence (Q9NPD5 whole entry): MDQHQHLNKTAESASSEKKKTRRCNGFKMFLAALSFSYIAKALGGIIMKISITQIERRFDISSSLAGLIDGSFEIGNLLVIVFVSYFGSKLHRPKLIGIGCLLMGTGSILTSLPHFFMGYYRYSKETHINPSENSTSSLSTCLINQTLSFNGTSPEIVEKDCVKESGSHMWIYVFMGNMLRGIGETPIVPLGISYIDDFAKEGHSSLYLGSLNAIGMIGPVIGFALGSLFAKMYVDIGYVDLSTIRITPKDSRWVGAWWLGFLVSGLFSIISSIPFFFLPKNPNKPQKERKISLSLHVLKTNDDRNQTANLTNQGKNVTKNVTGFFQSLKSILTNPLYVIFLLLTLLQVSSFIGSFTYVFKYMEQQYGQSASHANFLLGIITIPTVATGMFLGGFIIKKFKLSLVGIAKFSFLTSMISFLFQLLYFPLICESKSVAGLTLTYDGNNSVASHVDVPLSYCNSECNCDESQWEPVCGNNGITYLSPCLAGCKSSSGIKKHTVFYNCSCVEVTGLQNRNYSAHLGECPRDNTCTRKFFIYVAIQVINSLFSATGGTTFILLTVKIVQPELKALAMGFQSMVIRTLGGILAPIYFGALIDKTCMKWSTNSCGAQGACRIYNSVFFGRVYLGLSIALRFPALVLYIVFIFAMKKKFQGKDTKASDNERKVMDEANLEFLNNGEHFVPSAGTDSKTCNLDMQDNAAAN
Conditions: chinese hamster, cho, 10 µM
Friendly reminder: residual activity below 90% is met, at or above is not met.

[Q] Here's an entry: `CC1(C)CC[C@]2(C(=O)O)CC[C@]3(C)C(=CC[C@@H]4[C@@]5(C)CC[C@H](O)[C@@](C)(CO)[C@@H]5CC[C@]43C)[C@@H]2C1` . Is its residual activity below 90%?
[A] met

[Q] hey, is residual activity for `Nc1ccc(C(=O)NCC(=O)O)cc1` lower than 90% or not?
[A] not met

[Q] Lab note: confirm whether the reported residual activity for this molecule is below 90%, equality not counting. molecule: `N=C(NCCC[C@H](N)C(=O)O)N[N+](=O)[O-]`
[A] not met

[Q] I'd appreciate it if you could check whether `NC(=O)c1ncn([C@@H]2O[C@H](CO)[C@@H](O)[C@H]2O)c1O` has residual activity smaller than 90%.
[A] not met

[Q] Is residual activity strictly under 90% for the entry CC(C)(C)NCC(O)COc1cccc2c1CC(O)C(O)C2 (stereo unspecified) ?
[A] met

[Q] Find out if reported residual activity for `c1ccc(/N=N/c2ccccc2)cc1` is less than 90%
[A] not met

[Q] Is 90% strictly greater than the molecule's reported residual activity? molecule: `CC(=O)CC(=O)CCC(=O)O`
[A] not met

[Q] residual activity strictly < 90% for this molecule? `CC(=O)O[C@@H]1CC[C@]2(C)[C@H](C[C@@H](OC(C)=O)[C@]3(C)C4=CC(=O)O[C@H](c5ccoc5)[C@@]4(C)CC[C@@H]23)C1(C)C`
[A] met

[Q] Item `O=c1cc(-c2ccc(O)cc2)oc2cc(O[C@@H]3O[C@H](CO)[C@@H](O)[C@H](O)[C@H]3O)cc(O)c12` : residual activity beneath 90%, strictly?
[A] not met

[Q] Input NS(=O)(=O)c1cc2c(cc1Cl)N=C(CSCc1ccccc1)NS2(=O)=O [BENZTHIAZIDE] ; condition: residual activity strictly below 90%. Does it hold?
[A] met

[Q] Quick check: residual activity of `CO[C@H]1[C@H](O)[C@H](O[C@H]2CC[C@@]3(C)[C@H](CC[C@@H]4[C@@H]3CC[C@]3(C)[C@@H](C5=CC(=O)OC5)CC[C@]43O)C2)O[C@@H](C)[C@@H]1O` under 90%?
[A] not met

[Q] A record lists Cc1onc(-c2c(Cl)cccc2Cl)c1C(=O)N[C@@H]1C(=O)N2[C@@H]1SC(C)(C)[C@@H]2C(=O)[O-].O.[Na+] [DICLOXACILLIN SODIUM] . Is its residual activity below 90%?
[A] met

[Q] # strict comparison: is reported residual activity < 90%? input = `CCCCC[C@@H](O)[C@H]1C(=O)O[C@H](C)[C@@H](O)/C=C/C=C/C=C/C=C/C=C(\C)[C@@H](O)C[C@H](O)C[C@H](O)C[C@H](O)C[C@H](O)C[C@H](O)C[C@@H]1O`
[A] not met

----------
Molecular target: UniProt Q9NPD5
Conditions: chinese hamster, cho, 10 µM
Value Type: residual activity
Give the number first and the unit second.

[Q] // residual activity lookup, key: CN1CCCN=C1/C=C/c1cccs1.O=C(O)c1cc2ccccc2c(Cc2c(O)c(C(=O)O)cc3ccccc23)c1O [PYRANTEL PAMOATE]
[A] 34.84%

[Q] Dear colleague, I am looking for the recorded residual activity of the following molecule: CCC[C@H]1CCCCN1 [CONIINE]
[A] 100.1%

[Q] Please look up its residual activity: CCOP(=S)(OCC)SCn1c(=O)oc2cc(Cl)ccc21 [PHOSALONE]
[A] 124%

[Q] Query: residual activity; subject: COc1ccc2c(c1)OC1(O)COc3cc(OC)c(OC)cc3C1=C2 (stereo not drawn) [12a-HYDROXY-5-DEOXYDEHYDROMUNDUSERONE]
[A] 119.6%

[Q] Could you share which residual activity value was measured for C=C1CCC2C(CC2(C)C)C(=O)CCC1O (stereo not drawn) [ISOKOBUSONE] ?
[A] 82.48%

[Q] Can you share its residual activity? I mean this molecule: C[N+]1(C)[C@@H]2CC[C@H]1C[C@@H](OC(=O)C(O)c1ccccc1)C2.[Br-] (stereo partly drawn) [HOMATROPINE METHYLBROMIDE]
[A] 73.94%

[Q] Query (molecule): O=C1OC(=O)C2C3CCC(O3)C12 (stereo not drawn) ; field requested: residual activity
[A] 93.17%

[Q] Quick check: residual activity of COC1=C[C@@H]2[C@@H]3Cc4ccc(OC)c(O)c4[C@]2(CCN3C)CC1=O [SINOMENINE] ?
[A] 68.46%

----------
Target: Solute carrier organic anion transporter family member 1B1 (Homo sapiens, UniProt Q9Y6L6)
Conditions: chinese hamster, cho, 10 µM
Kindly supply the reported residual activity values for the records listed here.
Only the number, expressed in %, is required.

[Q] For the compound shown here, NC(=O)C[S+]([O-])C(c1ccccc1)c1ccccc1 (stereo not given) , give the reported residual activity.
[A] 113.7

[Q] What value of residual activity has been reported for the following compound? `COc1cc(NS(=O)(=O)c2ccc(N)cc2)nc(OC)n1`
[A] 118.7

[Q] # residual activity lookup, item `COc1c(O)cccc1O`
[A] 95.14

[Q] Returns the measured residual activity for the input compound. Input: CCCCC1C(=O)N(c2ccccc2)N(c2ccc(O)cc2)C1=O (stereo not given) [OXYPHENBUTAZONE ANHYDROUS]
[A] 42.04

[Q] Endpoint output: residual activity of COC(=O)NC(=S)Nc1ccccc1NC(=S)NC(=O)OC [THIOPHANATE METHYL] . Value?
[A] 119

----------
Biological target: Solute carrier organic anion transporter family member 1B1 (Homo sapiens)
Sequence (Q9Y6L6 whole entry): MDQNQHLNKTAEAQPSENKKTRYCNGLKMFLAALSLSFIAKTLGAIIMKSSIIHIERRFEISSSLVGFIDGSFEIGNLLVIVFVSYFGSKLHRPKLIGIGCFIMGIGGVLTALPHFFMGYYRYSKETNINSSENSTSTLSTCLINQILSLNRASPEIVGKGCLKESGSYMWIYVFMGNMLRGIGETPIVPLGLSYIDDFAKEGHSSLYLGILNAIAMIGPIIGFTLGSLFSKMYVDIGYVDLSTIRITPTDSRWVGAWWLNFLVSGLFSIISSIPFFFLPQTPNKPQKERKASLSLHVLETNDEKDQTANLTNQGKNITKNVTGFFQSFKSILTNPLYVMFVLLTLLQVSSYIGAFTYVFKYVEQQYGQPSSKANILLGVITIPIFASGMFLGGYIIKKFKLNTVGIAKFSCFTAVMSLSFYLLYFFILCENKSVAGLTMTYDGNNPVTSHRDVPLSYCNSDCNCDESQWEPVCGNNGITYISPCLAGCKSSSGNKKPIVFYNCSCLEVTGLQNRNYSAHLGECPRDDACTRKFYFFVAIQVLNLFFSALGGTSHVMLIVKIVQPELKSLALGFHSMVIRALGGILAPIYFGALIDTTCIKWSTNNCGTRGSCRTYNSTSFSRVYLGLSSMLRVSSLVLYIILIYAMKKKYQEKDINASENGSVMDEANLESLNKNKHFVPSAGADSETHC
Settings: chinese hamster, cho, 10 µM
Hi there, I'd appreciate the recorded residual activity for every entry that follows.
Numbers only; they are read as %.

[Q] Which residual activity value belongs to COC(=O)C[C@H]1C(C)(C)[C@]2(Cl)O[C@@]34CC2C(=O)[C@]1(C)C3CC[C@]1(C)C4=CC(=O)O[C@H]1c1ccoc1 (stereo partly specified) ?
[A] 68.86

[Q] Fill in: residual activity of O=C([O-])P(=O)([O-])[O-].[Na+].[Na+].[Na+] [FOSCARNET SODIUM] is ___
[A] 113

[Q] residual activity lookup needed for `CCn1cc(C(=O)O)c(=O)c2cc(F)c(N3CCNCC3)cc21` , thanks.
[A] 97.94

[Q] I have this compound here, `COc1c(Cl)ccc(Cl)c1C(=O)O` , and I need its recorded residual activity.
[A] 88.8

[Q] Tell me the measured residual activity of `CC(=O)Oc1cccc2c1C(=O)c1c(OC(C)=O)cc(C(=O)O)cc1C2=O` , please.
[A] 72.58

[Q] Which measured residual activity value corresponds to COc1cc2c(cc1OC)[C@@H]1Cc3ccc(OC)c(OC)c3CN1CC2 [TETRAHYDROPALMATINE] ?
[A] 186.7

[Q] Which residual activity is reported for this compound? Cl.NNCc1ccccc1 [BENZYLHYDRAZINE HYDROCHLORIDE]
[A] 122.4

[Q] Form field: reported residual activity of CC(C(=O)O)c1cccc(Oc2ccccc2)c1 (stereo unspecified)
[A] 160.2

[Q] Field request: residual activity | item: O=C1CCC(N2C(=O)c3ccccc3C2=O)C(=O)N1 (stereo unspecified) [THALIDOMIDE]
[A] 82.94

[Q] # query: residual activity of entry CO[C@@]1(NC(=O)C(C(=O)[O-])c2ccc(O)cc2)C(=O)N2C(C(=O)[O-])=C(CSc3nnnn3C)CO[C@@H]21.[Na+].[Na+] (stereo partly specified) [MOXALACTAM DISODIUM]
[A] 87.94

[Q] Reported residual activity for COC(=O)C[C@H]1C2(C)CC34OC5(C)O[C@@]6([C@H](OC)C(OC(=O)C(C)C)[C@]7(C)C(/C(=C(/OC)C(C)C)C(=O)O[C@H]7c7ccoc7)[C@@]6(O5)[C@H](OC)[C@@]3(OC)C2OC(C)=O)[C@]14C (stereo partly specified) : what is it?
[A] 6.829

[Q] Given the entry `N[C@@H](CSCSC[C@H](N)C(=O)O)C(=O)O` , report its measured residual activity.
[A] 92.41

[Q] Fill in the blank: the reported residual activity of `CC[C@H](C)[C@H](N)C(=O)N1CCC[C@H]1C(=O)N[C@H](C(=O)O)[C@@H](C)CC` is ____.
[A] 108.3

[Q] Query (compound): `Cc1nc2ccccn2c(=O)c1CCN1CCC(C(=O)c2ccc(F)cc2)CC1` ; field requested: residual activity
[A] 93.87

[Q] residual activity for `CC(C)=CCC[C@]1(C)C=Cc2c(O)c3c(c(CC=C(C)C)c2O1)O[C@]12C(=C[C@@H]4C[C@H]1C(C)(C)O[C@@]2(C/C=C(/C)C(=O)O)C4=O)C3=O` ?
[A] 75.57

[Q] State the recorded residual activity for this entry: `Cl.OCCN1CCN(CCCN2c3ccccc3Sc3ccc(C(F)(F)F)cc32)CC1`
[A] 153.1

[Q] Returns the measured residual activity for the input compound. Input: `C[C@]12CC[C@@H]3c4ccc(O)cc4CC[C@H]3[C@@H]1CC[C@@H]2O`
[A] 125.9

[Q] So what does the record say about residual activity for `CC(C)CCCCCOC(=O)COc1cc(Cl)c(Cl)cc1Cl` ?
[A] 105.5

[Q] Reported residual activity, compound `O=C1c2ccccc2C(=O)c2ccccc21` : ____
[A] 96.98

[Q] Can you look up the measured residual activity of CC(=O)OCC(=O)[C@@]1(O)CC[C@H]2[C@@H]3CCC4=CC(=O)CC[C@]4(C)[C@@]3(F)[C@@H](O)C[C@@]21C [FLUDROCORTISONE ACETATE] for me?
[A] 36.29

[Q] Find the recorded residual activity belonging to `Oc1ccc(Cl)cc1` and report it.
[A] 89.66
